- experimentalTarget: T1, CEACAM1 (Sino Biological) (human, UniProt P13688 35-428, limits assumed)
- T1 construct: may be the same as CEACAM1-HIS; also called hCEACAM1; biotinylated soluble CEACAM1
- T1 sequence: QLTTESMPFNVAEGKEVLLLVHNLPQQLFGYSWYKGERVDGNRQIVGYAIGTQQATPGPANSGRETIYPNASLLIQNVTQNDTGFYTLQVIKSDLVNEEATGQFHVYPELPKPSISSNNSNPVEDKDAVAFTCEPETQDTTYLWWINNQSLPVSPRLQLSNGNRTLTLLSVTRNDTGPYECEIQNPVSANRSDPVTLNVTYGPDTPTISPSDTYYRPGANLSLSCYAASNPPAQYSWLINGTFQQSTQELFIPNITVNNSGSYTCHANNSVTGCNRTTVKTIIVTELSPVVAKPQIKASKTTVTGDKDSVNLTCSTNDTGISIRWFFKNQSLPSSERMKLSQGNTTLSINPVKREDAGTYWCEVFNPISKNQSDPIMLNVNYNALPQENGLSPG
- testDescription: SPR single-cycle
# if measured Kd < 90 nM: Criterion met  # else: Criterion not met

These recorded examples may help you get a feel for the data.
binder	assignedLabel
He4/L16 (antibody, IgG4, V domains shown, IgG4 S241P, kappa; also called He4 / 16) VH: EVQLLESGGGLVQPGGSLRLSCAASGFSFSDYYLYWVRQAPGKGLEWVATISVGGGQTSYADSVKGRFTISRDNSKNTLYLQMNSLRAEDTAMYYCTRALYYGPAWFAYWGQGTLVTVSS VL: DIVMTQSPDSLAVSLGERATINCKSSQSLLNSANQKNYLAWYQQKPGQPPKLLIYFASTRESGVPDRFSGSGSGTDFTLTISSLQAEDVAVYYCQSHYPYPFTFGGGTKVEIK	Criterion met
He1/L20 (antibody, IgG4, V domains shown, IgG4 S241P, kappa) VH: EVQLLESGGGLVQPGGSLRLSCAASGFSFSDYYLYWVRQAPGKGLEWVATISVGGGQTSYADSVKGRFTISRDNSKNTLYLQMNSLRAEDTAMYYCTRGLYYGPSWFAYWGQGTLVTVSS VL: DIVMTQSPDSLAVSLGERATINCKSSQSLLNSANQKNYLAWYQQKPGQPPKLLIYFASTRESGVPDRFSGSGSGTDFTLTISSLQAEDVAVYYCQSHFPYPLTFGGGTKVEIK	Criterion not met
He4/L2 (antibody, IgG4, V domains shown, IgG4 S241P, kappa) VH: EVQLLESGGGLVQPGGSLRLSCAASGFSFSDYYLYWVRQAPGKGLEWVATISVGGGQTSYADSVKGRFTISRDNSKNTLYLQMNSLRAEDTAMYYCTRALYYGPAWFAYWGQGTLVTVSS VL: DIVMTQSPDSLAVSLGERATINCKSSQSLLNSANQKNYLAWYQQKPGQPPKLLIYFASTRESGVPDRFSGSGSGTDFTLTISSLQAEDVAVYYCQSHYPFPYTFGGGTKVEIK	Criterion met

Kindly consider the entry below.
Please state whether Kd is below 90 nM for He1/L3 (antibody, IgG4, V domains shown, IgG4 S241P, kappa) VH: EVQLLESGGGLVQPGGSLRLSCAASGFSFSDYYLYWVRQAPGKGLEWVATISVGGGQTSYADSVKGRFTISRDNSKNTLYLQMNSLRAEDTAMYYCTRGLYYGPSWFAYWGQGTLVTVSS VL: DIVMTQSPDSLAVSLGERATINCKSSQSLLNSANQKNYLAWYQQKPGQPPKLLIYFASTRESGVPDRFSGSGSGTDFTLTISSLQAEDVAVYYCQSHFPFPFTFGGGTKVEIK
Criterion not met
